biological target: T1, Ac-IEPD-AMC
T1 chain: XIEPDX
Readout Name: Kcat (s⁻¹)
# unit: s⁻¹ | format: bare number

I'd like to know its Kcat. The protein in question is rat granzyme B N218A/R192A (protein) IIGGHEAKPHSRPYMAYLQIMDEYSGSKKCGGFLIREDFVLTAAHCSGSKINVTLGAHNIKEQEKMQQIIPVVKIIPHPAYNSKTISNDIMLLKLKSKAKRSSAVKPLNLPRRNVKVKPGDVCYVAGWGKLGPMGKYSDTLQEVELTVQEDQKCESYLKNYFDKANEICAGDPKIKRASFAGDSGGPLVCKKVAAGIVSYGQADGSTPRAFTKVSTFLSWIKKTMKKS 0.16
